protocolDescription: yeast display, Sf9 membrane polyspecificity reagent, FACS + sequencing; frameworks hold sequencing errors
measuredQuantity: polyreactivity (PSR sort gate)

QVQLVESGGGLVQAGCSLRLSCAASGSIFKRYTMGWYRQAPGKERELVAAISSRGGSTYYADSVKGRFTISRDNAKNTVYLQMNILKPEDTAVYYCNTKLHDGYGGWRYDYWGQGTQVTVSS	high polyreactivity
QVQLEESGGGLVQAGGSLRLSCAASGRTFRFYAMGWYRQAPGKERELVAAISESGGNTYYADSVKGRFTISRDNAKNTVYLQMNSLKPEDTAVYYCAARGRWKYNYWGQGTQVTVSS	high polyreactivity
QVQLVESGGGIVQAGGSLRLSFDASGFLFYSYAMGCYRQAPGKEREFVAAISWSGARTYYPDSVKGRFTISRDNAKNTVYLQMNSLKPEDTAVYYCIAVAFYPRSSRSWRLDYWGQGTQVTVSS	high polyreactivity
QVQHVESGGGLVQAGGSLRLSSAASGRIFSWNAMVWYRQAPGKERELVAAITNGGGTYYADSVKGRFTISRDNAKNTVYLQMNSLKPEDTAVYYCNAYRRKLWYPTGMYWGQGTQVTVSS	high polyreactivity

The measured values listed here are drawn from the nanobody polyreactivity screen of Harvey et al. (2022).
